System: biotinyl-Trp-oxazolone
Experiment: self-aminoacylation, catalytic enhancement (BWO) (fold over background); higher = more active; k-Seq, kA / k0A0; sequences stand for … in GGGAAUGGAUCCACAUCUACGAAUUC…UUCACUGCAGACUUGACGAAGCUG
Fewer inactive variants are shown than the library holds.
property-measured: self-aminoacylation
The response must contain the number and no unit.

Some solved cases for reference:
>  <macromolecule-sequence>
CCCCACUUAAAGCAAUCGGUC [Fam1B.1 aminoacylation ribozyme variant]

>  <self-aminoacylation>
2.05

$$$$
>  <macromolecule-sequence>
AACUUUGCUAAUAGGCGCAAG [Fam3.1 aminoacylation ribozyme variant]

>  <self-aminoacylation>
1.96

$$$$

Let us move to another entry and its self-aminoacylation.
Please report the recorded self-aminoacylation for GCACACUUCAAGCAAUCCGUC [Fam1B.1 aminoacylation ribozyme variant] .
2.01
